measurement.description: Growth substrates: final OD and % removal of cis-DCE and TCE (Table 1)
Format: cell-based
cond: culture grown on the listed substrate
Listed compounds paired with reported % REMOVAL TCE
The reply should be a number in %, with the unit left off.

Qu. % REMOVAL TCE lookup needed for O=C(O)c1ccccc1 [Benzoate] , thanks.
Ans. 6

Qu. If you can, please state the reported % REMOVAL TCE value of CCCC(=O)O [Butyrate] .
Ans. 9

Qu. If you can, please state the reported % REMOVAL TCE value of `Oc1ccccc1` .
Ans. 100

Qu. What does the record list as % REMOVAL TCE for `C=CCCO` ?
Ans. 21

Qu. Look up % REMOVAL TCE: `CC=CCO`
Ans. 20

Qu. Report % REMOVAL TCE for `OCc1ccccc1` please.
Ans. 100

Reference source: patent US11845927B2
